biological target: LIMK1 (Homo sapiens); construct: purchased Promega; assay: 33P-ATP radiotracer assay, LIMK1 (Reaction Biology Corporation); format: biochemical; conditions: 33P transfer from ATP to cofilin; 10 μM 33P-ATP, 1 μM cofilin; triplicate
Recorded Endpoint: IC50 (nM)

A: Cc1c[nH]c2ncnc(N3CCN(/C(=N/C#N)Nc4cccc(Br)c4)[C@@H](C)C3)c12 [Compound 1, reference compound]
B: Cc1c[nH]c2ncnc(N[C@@H]3CCCC[C@H]3NC(=NC#N)Nc3cccc(I)c3)c12
C: Cc1c[nH]c2ncnc(N[C@H]3CCCC[C@@H]3NC(=NC#N)Nc3cccc(I)c3)c12
D: Cc1c[nH]c2ncnc(N[C@@H]3CCCC[C@H]3NC(=NC#N)Nc3cccc(Br)c3)c12
E: Cc1c[nH]c2ncnc(N3CCN(C(=NC#N)Nc4cccc(I)c4)[C@@H](C)C3)c12
Lookup: Highest IC50 first, then in falling order down to the smallest. Write the labels in rank order as requested.
Found: C, B, D, A, E

###

target: LIMK2 (Homo sapiens); construct: purchased Reaction Biology Corporation; experiment: 33P-ATP radiotracer assay, LIMK2 (Reaction Biology Corporation); type: biochemical; settings: 33P radiotracer assay; top concentration 10 μM
Sequence (P53671 whole entry): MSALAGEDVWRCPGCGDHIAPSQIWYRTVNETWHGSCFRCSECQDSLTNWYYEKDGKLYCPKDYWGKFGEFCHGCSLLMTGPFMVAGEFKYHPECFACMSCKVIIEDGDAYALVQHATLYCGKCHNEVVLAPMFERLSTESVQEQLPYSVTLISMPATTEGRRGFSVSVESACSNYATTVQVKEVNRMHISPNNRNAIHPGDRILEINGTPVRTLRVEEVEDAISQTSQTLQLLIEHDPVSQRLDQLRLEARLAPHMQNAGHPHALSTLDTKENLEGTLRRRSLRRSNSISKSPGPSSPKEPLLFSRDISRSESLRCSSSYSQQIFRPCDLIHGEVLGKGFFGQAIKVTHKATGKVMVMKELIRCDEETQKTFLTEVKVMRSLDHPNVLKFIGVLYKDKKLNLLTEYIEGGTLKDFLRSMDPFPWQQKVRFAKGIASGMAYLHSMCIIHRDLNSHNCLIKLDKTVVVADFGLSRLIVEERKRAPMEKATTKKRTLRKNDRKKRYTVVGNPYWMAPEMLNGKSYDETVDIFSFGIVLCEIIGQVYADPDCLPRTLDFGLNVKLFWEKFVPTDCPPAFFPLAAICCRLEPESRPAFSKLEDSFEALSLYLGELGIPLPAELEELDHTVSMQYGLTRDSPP
Recorded Endpoint: IC50

# Compound, IC50
rows = [
    ("Cc1c[nH]c2ncnc(N[C@H]3CCCC[C@@H]3NC(=NC#N)Nc3cccc(I)c3)c12 [Compound 26]", "> 10 µM"),
]

Now let's try a different one.
Lookup: Using the record for Cc1c[nH]c2ncnc(N[C@H]3CCCC[C@@H]3NC(=NC#N)Nc3cccc(Br)c3)c12 [Compound 25] , report its IC50.
Found: > 10 µM

###

Target: LIMK1 (Homo sapiens, UniProt P53667)
Construct: purchased Promega
Sequence (P53667 whole entry): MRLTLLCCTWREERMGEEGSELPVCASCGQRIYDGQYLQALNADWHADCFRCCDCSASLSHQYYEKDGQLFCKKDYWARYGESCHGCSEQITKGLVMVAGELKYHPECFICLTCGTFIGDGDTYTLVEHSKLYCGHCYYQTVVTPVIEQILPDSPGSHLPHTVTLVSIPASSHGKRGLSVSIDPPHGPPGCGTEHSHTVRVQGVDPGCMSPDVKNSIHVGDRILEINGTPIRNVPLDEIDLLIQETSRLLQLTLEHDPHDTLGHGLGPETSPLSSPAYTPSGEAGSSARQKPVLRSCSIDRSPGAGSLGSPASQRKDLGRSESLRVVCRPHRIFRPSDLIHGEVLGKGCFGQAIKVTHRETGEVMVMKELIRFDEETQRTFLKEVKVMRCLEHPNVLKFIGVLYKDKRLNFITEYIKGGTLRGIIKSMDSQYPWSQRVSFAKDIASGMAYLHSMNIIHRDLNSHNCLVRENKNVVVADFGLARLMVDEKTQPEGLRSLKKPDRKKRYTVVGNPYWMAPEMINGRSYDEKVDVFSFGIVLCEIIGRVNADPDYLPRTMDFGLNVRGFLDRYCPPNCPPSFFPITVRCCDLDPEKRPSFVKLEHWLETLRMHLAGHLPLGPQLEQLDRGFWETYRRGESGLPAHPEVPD
Assay: LIMK1 ADP-Glo kinase assay (Promega)
Format: biochemical
Conditions: 0.1 μM compound; Promega ADP-Glo kinase assay; Table 2; read-out: % LIMK1 inhibition at 0.1 μM
Experimental: ADP-Glo kinase assay was performed in 96-well plate format using the Promega kinase assay system. LIMK1 (0.1 μg) and compounds (0.1–100 μM) were dissolved in kinase reaction buffer and incubated for 30 min at rt. The reaction was then initiated by the addition of ATP (10 μM, 5 μl) and incubation for 30 min at 30°C. […] Kinase detection reagent (50 μl) was added and incubated for 30 min prior to luminescence reading on the BMG Labtech PHERAstar FS plate reader. […]
Recorded Endpoint: inhibition at 0.1 µM (%)

# Test Smiles, Recorded Endpoint, Unit, Reported Value
data = [
    ("Cc1c[nH]c2ncnc(N[C@@H]3CCCC[C@H]3NC(=NC#N)Nc3cccc(I)c3)c12", "inhibition at 0.1 µM", "%", 93.2),
    ("Cc1c[nH]c2ncnc(N[C@@H]3CCCC[C@H]3NC(=NC#N)Nc3cccc(Br)c3)c12", "inhibition at 0.1 µM", "%", 96.7),
    ("Cc1c[nH]c2ncnc(N3CCN(C(=NC#N)Nc4cccc(I)c4)[C@@H](C)C3)c12", "inhibition at 0.1 µM", "%", 95.5),
    ("Cc1c[nH]c2ncnc(N[C@H]3CCCC[C@@H]3NC(=NC#N)Nc3cccc(I)c3)c12", "inhibition at 0.1 µM", "%", 94.9),
    ("Cc1c[nH]c2ncnc(N[C@H]3CCCC[C@@H]3NC(=NC#N)Nc3cccc(Br)c3)c12", "inhibition at 0.1 µM", "%", 96),
]
